B1: Gal4AD-Rec104 [S. cerevisiae] / LexA-Rec102 [S. cerevisiae] (parent complex)
chain 1: MSIEEEDTNKITCTQDFLHQYFVTERVSIQFGLNNKTVKRINKDEFDKAVNCIMSWTNYPKPGLKRTASTYLLSNSFKKSATVSLPFILGDPVCMPKRVESNNNDTCLLYSDTLYDDPLIQRNDQAGDEIEDEFSFTLLRSEVNEIRPISSSSTAQILQSDYSALMYERQASNGSIFQFSSP
chain 2: MARDITFLTVFLESCGAVNNDEAGKLLSAWTSTVRIEGPESTDSNSLYIPLLPPGMLKIKLNFKMNDRLVTEEQELFTKLREIVGSSIRFWEEQLFYQVQDVSTIENHVILSLKCTILTDAQISTFISKPRELHTHAKGYPEIYYLSELSTTVNFFSKEGNYVEISQVIPHFNEYFSSLIVSQLEFEYPMVFSMISRLRLKWQQSSLAPISYALTSNSVLLPIMLNMIAQDKSSTTAYQILCRRRGPPIQNFQIFSLPAVTYNK

Variants of: B1
Assay: Y2H β-galactosidase assay; parent: 0.97; read off a plot
Measure: response

[[record]]
alteration = "chain 1 I53A"
result = "~1.1 normalized β-gal units"

[[record]]
alteration = "chain 1 K10A"
result = "~0.83 normalized β-gal units"

[[record]]
alteration = "chain 1 I11A"
result = "~0.93 normalized β-gal units"


// input: 6 variants below; output: response for each
1. chain 1 Y21A
2. chain 1 V50A
3. chain 1 F17A
4. chain 1 T12A
5. chain 1 L18A
6. chain 1 F31A

## Output
~1.1 normalized β-gal units
~1.2 normalized β-gal units
~0.8 normalized β-gal units
~0.75 normalized β-gal units
~0.75 normalized β-gal units
~1.6 normalized β-gal units

## Input What does the data say about its response? Entry: chain 1 L33A
## Output ~0.87 normalized β-gal units
